target: SARS-CoV-2 spike protein receptor binding domain (RBD2) (SARS-CoV-2, UniProt P0DTC2 319-537); assay: SPR sandwich binning, ligand CR3022
quantity_name: normalized analyte binding to RBD2 held by the immobilized ligand
Lab note: write the figure by itself, no unit.

// worked examples, normalized analyte binding to RBD2 held by the immobilized ligand included
G07 IgG1 (antibody, V domains shown) VH: QVQLVQSGAEVKKPGESLKISCKGSGYSFTSYWIGWVRQMPGKGLEWMGIIYPGDSDIRYSPSFQGQVTISADKSFSSAYLQWSSLKASDTAMYYCARLGATGAFDIWGQGTTVTVSS VL: QSVLIQPPSASGTPGQRVTISCSGSNSNFGSNSVSWYQQRPGTAPKLLIEGNNQRPSGVPERFSGSKSGTSASLAISGLQSEDEAEYSCASWDDSLNAFVFGPGTKLTVL; 1.56
S01 IgG1 (antibody, V domains shown, also called 501) VH: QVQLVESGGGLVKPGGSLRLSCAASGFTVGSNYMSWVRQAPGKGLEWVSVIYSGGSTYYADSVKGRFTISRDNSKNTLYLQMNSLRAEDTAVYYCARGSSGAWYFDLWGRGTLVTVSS VL: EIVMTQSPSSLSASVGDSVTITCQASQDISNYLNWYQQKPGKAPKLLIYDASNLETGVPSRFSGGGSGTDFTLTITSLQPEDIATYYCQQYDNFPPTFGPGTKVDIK; 1.39

Fill blank: measured normalized analyte binding to RBD2 held by the immobilized ligand of the binder E01 IgG1 (antibody, V domains shown, also called E1) VH: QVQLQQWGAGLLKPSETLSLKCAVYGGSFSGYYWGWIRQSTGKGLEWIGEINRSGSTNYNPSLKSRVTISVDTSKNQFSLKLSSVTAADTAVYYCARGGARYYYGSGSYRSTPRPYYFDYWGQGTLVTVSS VL: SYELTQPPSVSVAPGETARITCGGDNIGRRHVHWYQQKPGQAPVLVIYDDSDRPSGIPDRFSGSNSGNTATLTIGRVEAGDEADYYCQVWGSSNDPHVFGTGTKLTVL is ____.
2.39

Need normalized analyte binding to RBD2 held by the immobilized ligand of F07 IgG1 (antibody, V domains shown) VH: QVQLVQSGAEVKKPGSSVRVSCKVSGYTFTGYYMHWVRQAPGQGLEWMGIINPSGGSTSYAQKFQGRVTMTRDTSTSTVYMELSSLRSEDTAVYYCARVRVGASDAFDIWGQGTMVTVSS VL: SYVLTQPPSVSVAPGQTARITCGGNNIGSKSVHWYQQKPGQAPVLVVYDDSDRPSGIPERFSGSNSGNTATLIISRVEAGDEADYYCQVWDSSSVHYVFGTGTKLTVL , thanks.
0.9

Need normalized analyte binding to RBD2 held by the immobilized ligand of H01 IgG1 (antibody, V domains shown, also called H1) VH: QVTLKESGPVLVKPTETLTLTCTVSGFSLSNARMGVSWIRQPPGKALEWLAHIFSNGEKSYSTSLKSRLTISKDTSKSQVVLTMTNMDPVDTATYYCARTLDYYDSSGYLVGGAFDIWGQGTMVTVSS VL: QPGLTQPPSVSLAPGQTARITCGGNNIGSKSVHWYQQKPGQAPVLVVYDDSDRPSGIPERFSGSNAGNTATLTISRVEAGDEADYYCQVWDSRSDQYVFGTRTKLTVL , thanks.
-0.05

Where do the numbers come from? From patent US12018066.
